- Tested target: Protein-arginine deiminase type-4 (Homo sapiens) (UniProt Q9UM07)
- Sequence (Q9UM07 whole entry, looked up): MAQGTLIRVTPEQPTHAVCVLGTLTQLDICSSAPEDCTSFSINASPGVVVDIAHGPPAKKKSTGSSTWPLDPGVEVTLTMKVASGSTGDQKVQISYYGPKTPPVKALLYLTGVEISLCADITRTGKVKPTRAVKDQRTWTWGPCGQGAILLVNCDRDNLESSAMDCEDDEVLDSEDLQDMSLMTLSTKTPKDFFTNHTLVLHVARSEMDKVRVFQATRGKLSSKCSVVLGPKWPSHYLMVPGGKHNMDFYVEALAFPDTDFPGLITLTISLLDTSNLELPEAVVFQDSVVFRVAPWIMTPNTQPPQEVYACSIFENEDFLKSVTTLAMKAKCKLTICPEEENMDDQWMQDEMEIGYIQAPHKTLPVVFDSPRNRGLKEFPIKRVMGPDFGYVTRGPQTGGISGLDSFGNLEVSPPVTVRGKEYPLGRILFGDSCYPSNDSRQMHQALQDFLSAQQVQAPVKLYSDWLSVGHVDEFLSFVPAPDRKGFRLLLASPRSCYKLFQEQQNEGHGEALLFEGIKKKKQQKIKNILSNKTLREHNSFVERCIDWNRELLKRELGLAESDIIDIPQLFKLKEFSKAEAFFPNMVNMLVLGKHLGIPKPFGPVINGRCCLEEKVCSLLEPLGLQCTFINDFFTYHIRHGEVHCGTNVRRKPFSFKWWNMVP
- Assay method text: human PAD4 inhibitors, primary screen, biochemical, fluorescence polarization, 1536-well format (AID 485272);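 also: 0% = PAD4 with RCA probe and DMSO and 100% = probe without PAD4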
- Condition details: recombinant PAD4, RCA probe fluorescence polarization; at 6.36 µM
The campaign covered roughly 330,000 compounds. About 1,300 (0.39%) were called active.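 The calls were made as follows: active = percent inhibition above a cutoff equal to the mean of all tested compounds plus 3 SD (cut at about 15% in these data); inactive = the rest.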 Only a selection was taken, and actives are over-represented in it overall.
Write down the outcome that applies. Available outcomes: 1 (active), 0 (inactive)

# lookup: test call for `Cc1cccc(-n2c(O)c(C=NC34CN5CN(CN(C5)C3)C4)c(=O)[nH]c2=O)c1`
0

Recorded call for `COc1cc(Cn2c(N)c(C(=O)NCc3ccco3)c3nc4ccccc4nc32)cc(OC)c1OC` ?
0

Record request — test call for `CCOC(=O)c1c(N)n(Cc2ccccc2)c2nc3ccccc3nc12`
1

Query: recorded result category for `CC(C)N(CC#CCC1(O)c2ccccc2-c2ccccc21)C(C)C` in this test
0
